Tested on: LNCaP tumor-bearing male CB-17 SCID mice
protocol_summary: Biodistribution 1 h p.i.
Assay type: in vivo
measured_metric: Biodistribution Bone (% ID/g)
Give the value in % ID/g but do not write % ID/g after it.

Ask | Looking for the measured Biodistribution Bone of CC(C)(C)[Si]([18F])(c1ccc(C(=O)NC[C@H](NC(=O)CC[C@H](C(=O)O)N2CCN(CC(=O)[O-])CCN(CC(=O)[O-])CCN(CC(=O)[O-])CC2)C(=O)N[C@H](CCCCNC(=O)CCC(=O)NCCC[C@@H](NC(=O)CC[C@H](NC(=O)N[C@@H](CCC(=O)O)C(=O)O)C(=O)O)C(=O)O)C(=O)O)cc1)C(C)(C)C.[Ga+3] [[^18F, ^natGa]rhPSMA-7.2] , can you help?
Reply | 0.31

* * *

Form field: Biodistribution Stomach (one value per entry).
Tested on: LNCaP tumor-bearing male CB-17 SCID mice
protocol_summary: Biodistribution 1 h p.i.
Assay type: in vivo
Please respond with the number in % ID/g and leave the unit unwritten.

Ask | Could you tell me which Biodistribution Stomach is on file for CC(C)(C)[Si]([18F])(c1ccc(C(=O)NC[C@@H](NC(=O)CC[C@H](C(=O)O)N2CCN(CC(=O)[O-])CCN(CC(=O)[O-])CCN(CC(=O)[O-])CC2)C(=O)N[C@H](CCCCNC(=O)CCC(=O)NCCC[C@@H](NC(=O)CC[C@H](NC(=O)N[C@@H](CCC(=O)O)C(=O)O)C(=O)O)C(=O)O)C(=O)O)cc1)C(C)(C)C.[Ga+3] [[^18F, ^natGa]rhPSMA-7.1] ?
Reply | 0.28

Ask | So what does the record say about Biodistribution Stomach for CC(C)(C)[Si]([18F])(c1ccc(C(=O)NC[C@H](NC(=O)CC[C@@H](C(=O)O)N2CCN(CC(=O)[O-])CCN(CC(=O)[O-])CCN(CC(=O)[O-])CC2)C(=O)N[C@H](CCCCNC(=O)CCC(=O)NCCC[C@@H](NC(=O)CC[C@H](NC(=O)N[C@@H](CCC(=O)O)C(=O)O)C(=O)O)C(=O)O)C(=O)O)cc1)C(C)(C)C.[Ga+3] [[^18F, ^natGa]rhPSMA-7.4] ?
Reply | 0.25

Ask | Item CC(C)(C)[Si]([18F])(c1ccc(C(=O)NC[C@H](NC(=O)CC[C@H](C(=O)O)N2CCN(CC(=O)[O-])CCN(CC(=O)[O-])CCN(CC(=O)[O-])CC2)C(=O)N[C@H](CCCCNC(=O)CCC(=O)NCCC[C@@H](NC(=O)CC[C@H](NC(=O)N[C@@H](CCC(=O)O)C(=O)O)C(=O)O)C(=O)O)C(=O)O)cc1)C(C)(C)C.[Ga+3] [[^18F, ^natGa]rhPSMA-7.2] has what recorded Biodistribution Stomach?
Reply | 0.19

* * *

Reported IC50 values are given for each entry in this list.
measurement_target: PSMA (Homo sapiens)
Construct: host or cells: LNCaP cells
Sequence (Q04609 whole entry): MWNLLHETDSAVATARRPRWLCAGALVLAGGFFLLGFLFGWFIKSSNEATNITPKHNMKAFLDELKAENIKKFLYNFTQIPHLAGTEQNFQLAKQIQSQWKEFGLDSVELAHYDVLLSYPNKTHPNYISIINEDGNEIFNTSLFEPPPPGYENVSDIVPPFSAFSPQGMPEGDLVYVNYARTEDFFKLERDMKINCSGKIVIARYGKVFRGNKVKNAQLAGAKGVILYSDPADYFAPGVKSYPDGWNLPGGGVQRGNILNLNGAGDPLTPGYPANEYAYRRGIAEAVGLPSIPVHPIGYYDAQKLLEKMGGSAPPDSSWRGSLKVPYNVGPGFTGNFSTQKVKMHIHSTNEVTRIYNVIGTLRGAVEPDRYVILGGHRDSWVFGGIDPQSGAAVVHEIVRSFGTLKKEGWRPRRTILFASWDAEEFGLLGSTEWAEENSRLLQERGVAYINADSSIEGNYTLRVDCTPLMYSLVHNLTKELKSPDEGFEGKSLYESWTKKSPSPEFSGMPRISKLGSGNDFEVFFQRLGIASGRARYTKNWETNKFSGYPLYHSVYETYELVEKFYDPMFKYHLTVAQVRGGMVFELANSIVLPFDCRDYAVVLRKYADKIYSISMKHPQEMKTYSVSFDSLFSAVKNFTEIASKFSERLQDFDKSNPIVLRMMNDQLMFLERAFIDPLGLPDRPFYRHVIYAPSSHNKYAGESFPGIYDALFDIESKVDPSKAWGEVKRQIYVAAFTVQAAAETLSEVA
protocol_summary: Competitive binding (IC50) on LNCaP cells vs ([125I]I-BA)KuE
setup_conditions: 1 h, 4 °C, n = 5-9, read-out: IC50 (binding affinity)
Hi! Could you send only the number? It should be in nM, unit omitted.

Previously resolved entries follow.
compound: CC(C)(C)[Si](F)(c1ccc(C(=O)NC[C@@H](NC(=O)CC[C@@H](C(=O)O)N2CCN(CC(=O)[O-])CCN(CC(=O)[O-])CCN(CC(=O)[O-])CC2)C(=O)N[C@H](CCCCNC(=O)CCC(=O)NCCC[C@@H](NC(=O)CC[C@H](NC(=O)N[C@@H](CCC(=O)O)C(=O)O)C(=O)O)C(=O)O)C(=O)O)cc1)C(C)(C)C.[Ga+3] [[^18F, ^natGa]rhPSMA-7.3]
measurement_target: PSMA (Homo sapiens)
units_of_measure: nM
IC50: 4.4
--
compound: CC(C)(C)[Si](F)(c1ccc(C(=O)NC[C@H](NC(=O)CC[C@H](C(=O)O)N2CCN(CC(=O)[O-])CCN(CC(=O)[O-])CCN(CC(=O)[O-])CC2)C(=O)N[C@H](CCCCNC(=O)CCC(=O)NCCC[C@@H](NC(=O)CC[C@H](NC(=O)N[C@@H](CCC(=O)O)C(=O)O)C(=O)O)C(=O)O)C(=O)O)cc1)C(C)(C)C.[Ga+3] [[^18F, ^natGa]rhPSMA-7.2]
measurement_target: PSMA (Homo sapiens)
units_of_measure: nM
IC50: 3.7
--
compound: CC(C)(C)[Si](F)(c1ccc(C(=O)NC[C@@H](NC(=O)CC[C@H](C(=O)O)N2CCN(CC(=O)[O-])CCN(CC(=O)[O-])CCN(CC(=O)[O-])CC2)C(=O)N[C@H](CCCCNC(=O)CCC(=O)NCCC[C@@H](NC(=O)CC[C@H](NC(=O)N[C@@H](CCC(=O)O)C(=O)O)C(=O)O)C(=O)O)C(=O)O)cc1)C(C)(C)C.[Ga+3] [[^18F, ^natGa]rhPSMA-7.1]
measurement_target: PSMA (Homo sapiens)
units_of_measure: nM
IC50: 6.9

Ask | Please look up its IC50: CC(C)(C)[Si](F)(c1ccc(C(=O)NC[C@H](NC(=O)CC[C@@H](C(=O)O)N2CCN(CC(=O)[O-])CCN(CC(=O)[O-])CCN(CC(=O)[O-])CC2)C(=O)N[C@H](CCCCNC(=O)CCC(=O)NCCC[C@@H](NC(=O)CC[C@H](NC(=O)N[C@@H](CCC(=O)O)C(=O)O)C(=O)O)C(=O)O)C(=O)O)cc1)C(C)(C)C.[Ga+3] [[^18F, ^natGa]rhPSMA-7.4]
Reply | 3.6

Just for reference, paper PMC7721954 is where these values come from.
